# protocol.text: Proliferation of enzyme-dispersed (ED) human VSMC cultures
# Format: cell-based
# condition.details: human, aortic vsmc ed cultures, cell counting, read-out: concentrations that caused cell death
parameter: MCC at 96 h

What value of MCC at 96 h has been reported for the following compound? CC/C(=C(\c1ccccc1)c1ccc(OCCN(C)C)cc1)c1ccccc1 > 33 µM

###

# System: Rat vascular smooth muscle cells
# protocol.text: Proliferation of rat vascular smooth muscle cells by cell counting
# Type: cell-based
# condition.details: rat ED VSMC; read-out: half-maximal inhibition of proliferation
pIC50: −log10 of the molar value.
parameter: pIC50

What value of pIC50 has been reported for the following molecule? CC/C(=C(\c1ccccc1)c1ccc(OCCN(C)C)cc1)c1ccccc1 [tamoxifen] 5.30 to 5.70
